B1: PTPRD (parent)
chain: ELDELLKEISRKRRSIRYGREVEL

- Variants of: B1
- assayMethodText: protein stability index of a GFP-peptide fusion (GPS, HEK-293T) (PSI 1-6); higher = more stable;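 further: lentivirally expressed fusions sorted by FACS into six bins by GFP to DsRed ratio, PSI derived from sequencing read proportions per bin multiplied by bin number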
- runParameters: c terminus: a fixed tail appended
parameter: protein stability index
Give a plain numeric answer without units written out.

Exercise: Bench note: what protein stability index did ELDELLKEISRKRRSIRYGREIEL show?
Solution: 2.17

Exercise: What about this variant? ELDELLKEISRKRRSIRYGREVDL
Solution: 2.12

Exercise: What about this variant? ELDELLKEISRKRRSIDYGREVEL
Solution: 3.33

Exercise: What about this variant? NLDELLKEISRKRRSIRYGREVEL
Solution: 2.56

---
Exercise: Bench note: what protein stability index did ELDELLKEISRKRRSIPYGREVEL show?
Solution: 2.97

Exercise: What about this variant? ELDELLKEISRKRRSIRYGREHEL
Solution: 2.88

Exercise: What about this variant? ELDELLKEISRKRRSIRSGREVEL
Solution: 2.91

Exercise: What about this variant? ELDELLKEISRKRRSIRYAREVEL
Solution: 2.34

Exercise: What about this variant? ELDELLKEISRKRRSIRYGSEVEL
Solution: 3.33

Exercise: What about this variant? ELDELLKEISRKRRSIAYGREVEL
Solution: 2.39

Exercise: What about this variant? ELDELLKEISRKKRSIRYGREVEL
Solution: 2.54

Exercise: What about this variant? ELDELLKEISPKRRSIRYGREVEL
Solution: 3.04

Exercise: What about this variant? ELDELLKEISSKRRSIRYGREVEL
Solution: 2.49

Exercise: What about this variant? ELDELLKAISRKRRSIRYGREVEL
Solution: 1.68

Exercise: What about this variant? ELDELLKEISRKWRSIRYGREVEL
Solution: 1.72
